Just for reference, PubChem BioAssay (NCI) is where these values come from.

system: OVCAR-4 ovarian; assay: NCI-60 one-dose screen, 48 h (100 = growth as untreated, 0 = no growth, -100 = all killed); conditions: 10 µM unless noted
This is part of a sample that, as a whole, favours compounds with a hit. Of some 83,000 tested, about 20% had one in any assay.
Listed here: items and their measured growth.
# number only, unit % dropped from output

| compound | growth / % |
| --- | --- |
| CCCCCCCCCCCCCCCC[N+]1(C)CCN(SN2CC[N+](C)(CCCCCCCCCCCCCCCC)CC2)CC1 | 74.6 |

Need growth, item `CCOC(=O)c1cc(C(=O)c2cc(OC)cc(OC)c2)n2ccc3ccccc3c12`
88.8

Need growth, item `CNC(=O)c1cccc(Cn2nc(C)c(NC(=O)c3ccc(COc4ccc(C(F)(F)F)cc4C)cc3)c2C)n1`
37.8

Need growth, item C=C1C(=O)O[C@H]2[C@H]1CC/C(CNC(=O)C(C)c1ccc(CC(C)C)cc1)=C\CC[C@@]1(C)O[C@@H]21 (some centres undefined)
29.3

Need growth, item `CCN(CC)CCn1c(=O)c2cc(OC)c(OC)cc2c2ccc3cc4c(cc3c21)OCO4`
66.4

Need growth, item `COc1cccc(-c2nc3occn3c2-c2ccnc(NCCNS(=O)(=O)c3cccc4ccccc34)n2)c1`
102

Need growth, item `Cc1ccc(/C=C(/C#N)n2nnc3cccc(F)c32)cc1`
23

Need growth, item `C=C1C(=O)O[C@H]2[C@H]1CC/C(CNC(=O)/C=C/c1ccccc1)=C\CC[C@@]1(C)O[C@@H]21`
38.5

Need growth, item `CC/C(=C\c1ccc(OC)cc1)C(=O)c1ccc(OC)cc1`
77.2
